test system: stationary phase B. burgdorferi persisters (strain B31); test: SYBR Green I/PI viability assay (plate reader), FDA-approved drug library screen; details: Borreliella burgdorferi, 168 h, read-out: Residual viable cells (regression equation, SYBR Green I/PI assay)
viability at 50 µM vs 50%: less than gives Fulfilled; not less than gives Not fulfilled.

See these solved cases before continuing.
>>> class_label("NCc1ccccc1CC(=O)N[C@@H]1C(=O)N2C(C(=O)O)=C(CSc3nnnn3CC(=O)O)CS[C@H]12 [Ceforanide]")
"Fulfilled"
>>> class_label("CC[C@H]1OC(=O)[C@H](C)[C@@H](O[C@H]2C[C@@](C)(OC)[C@@H](O)[C@H](C)O2)[C@H](C)[C@@H](O[C@@H]2O[C@H](C)C[C@H](N(C)C)[C@H]2O)[C@](C)(OC)C[C@@H](C)C(=O)[C@H](C)[C@@H](O)[C@]1(C)O [Clarithromycin]")
"Not fulfilled"
>>> class_label("[H]/N=C(/N)N[C@H]1[C@H](O)[C@@H](O)[C@H](O[C@@H]2O[C@@H](C)[C@](O)(C=O)[C@H]2O[C@@H]2O[C@@H](CO)[C@H](O)[C@@H](O)[C@@H]2NC)[C@@H](N/C(N)=N\\[H])[C@@H]1O [Streptomycin]")
"Fulfilled"
>>> class_label("CCN(CC)Cc1cc(Nc2ccnc3cc(Cl)ccc23)ccc1O [Amodiaquin]")
"Fulfilled"
>>> class_label("CN[C@H](CC(C)C)C(=O)N[C@H]1C(=O)N[C@@H](CC(N)=O)C(=O)N[C@H]2C(=O)N[C@H]3C(=O)N[C@H](C(=O)N[C@H](C(=O)O)c4cc(O)cc(O)c4-c4cc3ccc4O)[C@H](O)c3ccc(c(Cl)c3)Oc3cc2cc(c3O[C@@H]2O[C@H](CO)[C@@H](O)[C@H](O)[C@H]2O[C@H]2C[C@](C)(N)[C@H](O)[C@H](C)O2)Oc2ccc(cc2Cl)[C@H]1O [Vancomycin]")
"Fulfilled"

Field: next compound
Ask | Lab note: confirm whether the reported viability at 50 µM for this compound is below 50%, equality not counting. compound: CC1(C)S[C@@H]2[C@H](NC(=O)C3(N)CCCCC3)C(=O)N2[C@H]1C(=O)O [Cyclacillin]
Reply | Not fulfilled
